Catalogue of solubility values
assay: Aqueous solubility of the compound at pH 7.4 by HPLC analysis
Type: physicochemical
condition: buffer
assay metric: solubility (µg/mL)

{"smiles repr": "CC(=O)OCc1cc(N)c(Nc2ccc(C#N)cc2)cc1Oc1c(C)cc(C#N)cc1C", "scale unit": "µg/mL", "value observed": 0.2}
{"smiles repr": "COCc1cc(N)c(Nc2ccc(C#N)cc2)cc1Oc1c(C)cc(CCC#N)cc1C", "scale unit": "µg/mL", "value observed": 0.66}
{"smiles repr": "COCc1cc(N)c(Nc2ccc(C#N)cc2)cc1Oc1c(C)cc(/C=C/C#N)cc1C", "scale unit": "µg/mL", "value observed": 0.11}

###

Catalogue of EC50 values
Test system: Human immunodeficiency virus 1
assay: Antiviral activity against drug-resistant HIV1 A17 expressing K103N/Y181C mutant infected in human MT2 cells assessed as inhibition of viral replication
condition: Human immunodeficiency virus 1, A17, MT2
assay metric: EC50

{"smiles repr": "CNCc1cc(N)c(Nc2ccc(C#N)cc2)cc1Oc1c(C)cc(C#N)cc1C", "value observed": "115 nM"}
{"smiles repr": "Cc1cc(C#N)cc(C)c1Oc1cc(Nc2ccc(C#N)cc2)c(N)cc1CO", "value observed": "33.1 nM"}
{"smiles repr": "Cc1cc(C#N)cc(C)c1Oc1cc(Nc2ccc(C#N)cc2)c(N)cc1CN1CCN(C)CC1", "value observed": "> 2000 nM"}
{"smiles repr": "Cc1cc(C#N)cc(C)c1Oc1cc(Nc2ccc(C#N)cc2)c(N)cc1COC(C)C", "value observed": "315 nM"}
{"smiles repr": "CC(=O)OCc1cc(N)c(Nc2ccc(C#N)cc2)cc1Oc1c(C)cc(/C=C/C#N)cc1C", "value observed": "36.5 nM"}
